All values here come from ChEMBL document CHEMBL1153249.

Measured On: Cannabinoid receptor 1 (Homo sapiens)
Sequence (P21554 whole entry): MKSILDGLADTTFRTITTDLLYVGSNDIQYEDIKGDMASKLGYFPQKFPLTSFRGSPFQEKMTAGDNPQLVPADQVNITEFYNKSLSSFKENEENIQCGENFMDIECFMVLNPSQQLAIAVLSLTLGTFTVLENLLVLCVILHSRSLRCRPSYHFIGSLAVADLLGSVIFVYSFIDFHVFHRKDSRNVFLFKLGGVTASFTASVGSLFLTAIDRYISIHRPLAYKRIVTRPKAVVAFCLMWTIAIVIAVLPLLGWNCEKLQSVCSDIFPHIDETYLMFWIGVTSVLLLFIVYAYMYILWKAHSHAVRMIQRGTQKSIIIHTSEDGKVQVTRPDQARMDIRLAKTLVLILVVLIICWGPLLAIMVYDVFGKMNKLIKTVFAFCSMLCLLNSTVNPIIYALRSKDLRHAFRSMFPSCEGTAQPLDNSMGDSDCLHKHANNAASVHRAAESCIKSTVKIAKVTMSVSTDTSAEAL
Protocol Summary: biochemical
Format: cell-based, COS-7
Description: Displacement of [3H]CP-55940 from human CB1 receptor expressed in COS7 cells
Listed below: IC50 values for each entry.
State the answer as a number, implicitly in nM.

Form field IC50, entry NC(=O)Cc1c(C(=O)N2CCC(O)(c3ccc(F)cn3)CC2)nn(-c2ccccc2Cl)c1-c1ccc(Cl)cc1 : 5.5

Form field IC50, entry N#CN1CCC(CNC(=O)c2nn(-c3ccccc3Cl)c(-c3ccc(Cl)cc3)c2CC(N)=O)CC1 : 0.34

Form field IC50, entry NC(=O)Cc1c(C(=O)N2CCC(O)(c3ccccc3)CC2)nn(-c2ccccc2Cl)c1-c1ccc(Cl)cc1 : 2.9

---

Measured On: Cannabinoid receptor 1 (Homo sapiens)
Assay type: functional, cell-based, CHO-K1
Description: Antagonist activity at human CB1 receptor expressed in CHO-K1 cells assessed as inhibition of CP-55940-induced GTPgammaS binding
Parameter Measured: pIC50
Remember the convention: pIC50 equals -log10 of concentration in molar.

Use the examples below as a reference point.
N=C(N)Cc1c(C(=O)N2CCC(c3ncccn3)CC2)nn(-c2ccccc2Cl)c1-c1ccc(Cl)cc1; 8.01
N=C(N)Cc1c(C(=O)NN2CCCCC2)nn(-c2ccccc2Cl)c1-c1ccc(Cl)cc1; 9.03
NC(=O)Cc1c(C(=O)N2CCC(C(=O)O)(c3ccccn3)CC2)nn(-c2ccccc2Cl)c1-c1ccc(Cl)cc1; 7.80
NC(=O)Cc1c(C(=O)N2CCC(O)(c3ccccc3)CC2)nn(-c2ccccc2Cl)c1-c1ccc(Cl)cc1; 9.59
N#CCc1c(C(=O)N2CCC(c3ncccn3)CC2)nn(-c2ccccc2Cl)c1-c1ccc(Cl)cc1; 8.42

Switching to the query record.
Form field pIC50, entry NC(=O)Cc1c(C(=O)NN2CCOCC2)nn(-c2ccccc2Cl)c1-c1ccc(Cl)cc1 : 8.15

---

Measured On: Cannabinoid receptor 1 (Homo sapiens)
Protocol Summary: Displacement of [3H]CP-55940 from human CB1 receptor expressed in CHO-K1 cells
Type: cell-based
Listed below: IC50 values for each entry.
State the answer as a number, implicitly in nM.

Use the examples below as a reference point.
NC(=O)Cc1c(C(=O)N2CCC(O)(c3ccccn3)CC2)nn(-c2ccccc2Cl)c1-c1ccc(Cl)cc1; 1.9
NC(=O)Cc1c(C(=O)N2CCC(O)(c3ccc(F)cc3)CC2)nn(-c2ccccc2Cl)c1-c1ccc(Cl)cc1; 2.6

Form field IC50, entry NC(=O)Cc1c(C(=O)NN2CCCCC2)nn(-c2ccccc2Cl)c1-c1ccc(Cl)cc1 : 1.8

Form field IC50, entry NC(=O)Cc1c(C(=O)NN2CCOCC2)nn(-c2ccccc2Cl)c1-c1ccc(Cl)cc1 : 7.9

---

Protocol Summary: Bioavailability in ip dosed rat
Format: ADME, organism-based
Condition Set: in vivo
Parameter Measured: bioavailability

Form field bioavailability, entry N=C(N)Cc1c(C(=O)Nc2ccc(F)cc2)nn(-c2ccccc2Cl)c1-c1ccc(Cl)cc1 : 19%

---

Listed below: solubility values for each entry.
Protocol Summary: Solubility of the compound
Assay type: physicochemical
Condition Set: read-out: solubility

Use the examples below as a reference point.
NC(=O)Cc1c(C(=O)N2CCC(C(=O)O)(c3ccccn3)CC2)nn(-c2ccccc2Cl)c1-c1ccc(Cl)cc1; 425 µM
Cc1ccncc1NC(=O)c1nn(-c2ccccc2Cl)c(-c2ccc(Cl)cc2)c1CC(N)=O; 200 µM
NC(=O)Cc1c(C(=O)N2CCC(c3ncccn3)CC2)nn(-c2ccccc2Cl)c1-c1ccc(Cl)cc1; 1.1 µM
NC(=O)Cc1c(C(=O)N2CCC(O)(c3ccc(F)cn3)CC2)nn(-c2ccccc2Cl)c1-c1ccc(Cl)cc1; 290 µM
N#CN1CCC(CNC(=O)c2nn(-c3ccccc3Cl)c(-c3ccc(Cl)cc3)c2CC(N)=O)CC1; 16 µM
NC(=O)Cc1c(C(=O)NC2CCN(C(=O)C3CC3)CC2)nn(-c2ccccc2Cl)c1-c1ccc(Cl)cc1; 80 µM
NC(=O)Cc1c(C(=O)NN2CCCCC2)nn(-c2ccccc2Cl)c1-c1ccc(Cl)cc1; 4.5 µM
NC(=O)Cc1c(C(=O)N2CCC(O)(c3ccccn3)CC2)nn(-c2ccccc2Cl)c1-c1ccc(Cl)cc1; 400 µM
NC(=O)Cc1c(C(=O)N2CCC(O)(c3ccccc3)CC2)nn(-c2ccccc2Cl)c1-c1ccc(Cl)cc1; 105 µM
NC(=O)Cc1c(C(=O)N2CCC(C(=O)O)(c3ccc(F)cn3)CC2)nn(-c2ccccc2Cl)c1-c1ccc(Cl)cc1; 500 µM

Form field solubility, entry N#CC1(c2ccccc2)CCN(C(=O)c2nn(-c3ccccc3Cl)c(-c3ccc(Cl)cc3)c2CC(N)=O)CC1 : 9 µM

Form field solubility, entry NC(=O)Cc1c(C(=O)N2CCC(O)(c3ccc(F)cc3)CC2)nn(-c2ccccc2Cl)c1-c1ccc(Cl)cc1 : 75 µM

---

Protocol Summary: Lipophilicity, log D by chromatography
Format: physicochemical
# note: exactly 2 is not below, so it is label 0; use label 1 for chromatographic logD strictly under it

NC(=O)Cc1c(C(=O)NN2CCOCC2)nn(-c2ccccc2Cl)c1-c1ccc(Cl)cc1; label 1
Cc1ccncc1NC(=O)c1nn(-c2ccccc2Cl)c(-c2ccc(Cl)cc2)c1CC(N)=O; label 0
N#CN1CCC(CNC(=O)c2nn(-c3ccccc3Cl)c(-c3ccc(Cl)cc3)c2CC(N)=O)CC1; label 0

Task: Is chromatographic logD strictly under 2 for the entry NC(=O)Cc1c(C(=O)NC2CCN(C(=O)C3CC3)CC2)nn(-c2ccccc2Cl)c1-c1ccc(Cl)cc1 ?
Result: label 0

Task: Is chromatographic logD strictly under 2 for the entry NC(=O)Cc1c(C(=O)N2CCC(C(=O)O)(c3ccc(F)cn3)CC2)nn(-c2ccccc2Cl)c1-c1ccc(Cl)cc1 ?
Result: label 1

Task: Is chromatographic logD strictly under 2 for the entry NC(=O)Cc1c(C(=O)N2CCC(c3ncccn3)CC2)nn(-c2ccccc2Cl)c1-c1ccc(Cl)cc1 ?
Result: label 0

---

Measured On: Cannabinoid receptor 1 (Homo sapiens)
Format: functional, cell-based, CHO-K1
Parameter Measured: log10 of IC50 (log10 of the value in nM)
All values: base-10 log of IC50 in nM.

N=C(Cc1c(C(=O)N2CCC(c3ccccc3F)CC2)nn(-c2ccccc2Cl)c1-c1ccc(Cl)cc1)NO; -0.27
N#Cc1ccc(N2CCN(C(=O)c3nn(-c4ccccc4Cl)c(-c4ccc(Cl)cc4)c3CC(N)=O)CC2)nc1; 0.08
NC(=O)Cc1c(C(=O)N2CCC(O)(c3ccccn3)CC2)nn(-c2ccccc2Cl)c1-c1ccc(Cl)cc1; 0.56
N=C(Cc1c(C(=O)NN2CCOCC2)nn(-c2ccccc2Cl)c1-c1ccc(Cl)cc1)NO; 1.71
Cc1ccncc1NC(=O)c1nn(-c2ccccc2Cl)c(-c2ccc(Cl)cc2)c1CC(N)=O; 0.48

Form field log10 of IC50, entry N=C(N)Cc1c(C(=O)N2CCC(O)(c3ccc(F)cc3)CC2)nn(-c2ccccc2Cl)c1-c1ccc(Cl)cc1 : 0.28

Form field log10 of IC50, entry NC(=O)Cc1c(C(=O)N2CCC(c3ccccc3F)CC2)nn(-c2ccccc2Cl)c1-c1ccc(Cl)cc1 : -0.29

Form field log10 of IC50, entry NC(=O)Cc1c(C(=O)NN2CCCCC2)nn(-c2ccccc2Cl)c1-c1ccc(Cl)cc1 : 0.15

---

Listed below: chromatographic logD values for each entry.
Protocol Summary: Lipophilicity, log D by chromatography
Type: physicochemical
Keep the answer to the number alone.

Use the examples below as a reference point.
NC(=O)Cc1c(C(=O)N2CCC(O)(c3ccc(F)cn3)CC2)nn(-c2ccccc2Cl)c1-c1ccc(Cl)cc1; 2.5
NC(=O)Cc1c(C(=O)N2CCC(O)(c3ccc(F)cc3)CC2)nn(-c2ccccc2Cl)c1-c1ccc(Cl)cc1; 2.8
NC(=O)Cc1c(C(=O)N2CCC(C(=O)O)(c3ccccn3)CC2)nn(-c2ccccc2Cl)c1-c1ccc(Cl)cc1; 1.5
NC(=O)Cc1c(C(=O)N2CCC(O)(c3ccccc3)CC2)nn(-c2ccccc2Cl)c1-c1ccc(Cl)cc1; 2.7
N#CC1(c2ccccc2)CCN(C(=O)c2nn(-c3ccccc3Cl)c(-c3ccc(Cl)cc3)c2CC(N)=O)CC1; 3.4

Form field chromatographic logD, entry NC(=O)Cc1c(C(=O)NN2CCCCC2)nn(-c2ccccc2Cl)c1-c1ccc(Cl)cc1 : 2.6

Form field chromatographic logD, entry NC(=O)Cc1c(C(=O)N2CCC(O)(c3ccccn3)CC2)nn(-c2ccccc2Cl)c1-c1ccc(Cl)cc1 : 2.3

Form field chromatographic logD, entry N#Cc1ccc(N2CCN(C(=O)c3nn(-c4ccccc4Cl)c(-c4ccc(Cl)cc4)c3CC(N)=O)CC2)nc1 : 2.8

---

Protocol Summary: Stability in rat microsomes assessed as compound remaining after 30 mins
Type: ADME, Microsome
Condition Set: read-out: Stability
Parameter Measured: remaining at 0.5 h (%)
State the answer as a number, implicitly in %.

Cc1ccncc1NC(=O)c1nn(-c2ccccc2Cl)c(-c2ccc(Cl)cc2)c1CC(N)=O; 63

Switching to the query record.
Form field remaining at 0.5 h, entry NC(=O)Cc1c(C(=O)NN2CCCCC2)nn(-c2ccccc2Cl)c1-c1ccc(Cl)cc1 : 72
